- tgt: human PDE6A/6B (Homo sapiens (Human), UniProt P16499+P35913)
- Sequence (P16499 whole entry, change not shown): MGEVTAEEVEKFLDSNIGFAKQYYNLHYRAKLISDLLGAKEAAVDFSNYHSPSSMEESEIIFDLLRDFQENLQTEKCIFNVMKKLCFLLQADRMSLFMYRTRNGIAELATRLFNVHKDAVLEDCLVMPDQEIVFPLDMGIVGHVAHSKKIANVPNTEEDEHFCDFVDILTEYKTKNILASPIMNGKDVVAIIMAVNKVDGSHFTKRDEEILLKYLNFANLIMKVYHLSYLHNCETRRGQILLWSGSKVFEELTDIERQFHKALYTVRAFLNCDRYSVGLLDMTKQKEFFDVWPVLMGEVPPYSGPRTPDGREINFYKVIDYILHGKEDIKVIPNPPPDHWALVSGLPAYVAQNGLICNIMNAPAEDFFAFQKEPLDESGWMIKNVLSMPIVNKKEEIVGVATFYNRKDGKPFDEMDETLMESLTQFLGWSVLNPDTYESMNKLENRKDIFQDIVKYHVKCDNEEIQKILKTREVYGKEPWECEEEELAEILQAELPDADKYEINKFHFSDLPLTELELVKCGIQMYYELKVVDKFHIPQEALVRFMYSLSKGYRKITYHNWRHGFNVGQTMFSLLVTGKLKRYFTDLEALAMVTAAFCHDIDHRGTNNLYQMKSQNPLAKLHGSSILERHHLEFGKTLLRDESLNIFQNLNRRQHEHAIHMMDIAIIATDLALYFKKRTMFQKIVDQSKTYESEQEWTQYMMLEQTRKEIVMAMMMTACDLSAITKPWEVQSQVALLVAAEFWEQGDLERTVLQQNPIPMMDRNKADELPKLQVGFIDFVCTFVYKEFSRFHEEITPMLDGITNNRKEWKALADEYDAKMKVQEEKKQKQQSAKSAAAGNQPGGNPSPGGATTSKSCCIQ
- Sequence (P35913 other isoform, or with tags, fused parts or gaps isoform P35913-2): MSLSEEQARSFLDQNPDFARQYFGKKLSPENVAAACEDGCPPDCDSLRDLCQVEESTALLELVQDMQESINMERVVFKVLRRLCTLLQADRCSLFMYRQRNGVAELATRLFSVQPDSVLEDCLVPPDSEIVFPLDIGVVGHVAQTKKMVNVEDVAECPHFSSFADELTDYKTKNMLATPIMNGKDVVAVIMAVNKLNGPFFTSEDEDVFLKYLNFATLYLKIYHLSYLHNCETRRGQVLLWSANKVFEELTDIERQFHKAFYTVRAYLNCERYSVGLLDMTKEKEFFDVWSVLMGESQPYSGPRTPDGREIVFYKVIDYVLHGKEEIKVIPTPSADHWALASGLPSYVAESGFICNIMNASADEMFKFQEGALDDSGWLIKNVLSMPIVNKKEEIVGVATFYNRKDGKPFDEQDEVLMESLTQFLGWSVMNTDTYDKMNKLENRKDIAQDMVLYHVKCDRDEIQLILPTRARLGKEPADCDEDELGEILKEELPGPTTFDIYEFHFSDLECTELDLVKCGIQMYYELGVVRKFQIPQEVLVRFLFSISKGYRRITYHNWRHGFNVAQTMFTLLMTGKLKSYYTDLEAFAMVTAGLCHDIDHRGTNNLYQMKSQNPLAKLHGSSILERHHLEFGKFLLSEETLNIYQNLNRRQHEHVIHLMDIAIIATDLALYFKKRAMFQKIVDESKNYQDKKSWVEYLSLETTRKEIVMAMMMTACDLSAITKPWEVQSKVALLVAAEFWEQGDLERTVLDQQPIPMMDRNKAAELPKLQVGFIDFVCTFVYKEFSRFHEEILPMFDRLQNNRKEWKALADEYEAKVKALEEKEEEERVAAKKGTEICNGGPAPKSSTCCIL
- protocol.text: PDE enzyme assay using [3H]cGMP as substrate (radiometric SPA)
- experimental.conditions: human PDE6A/6B dimer 5 nM, [3H]cGMP 80 nM; read-out: PDE 6AB IC50
quantity.kind: pIC50
Numbers only, as −log10 of the molar value.

Consider the worked cases shown below.
[[record]]
compound = "CCCCn1c(=O)c2nnc(C3(C4CC4)CC3)n2c2ncc(C(C)C)cc21 [Example 10]"
tgt = "human PDE6A/6B (Homo sapiens (Human), UniProt P16499+P35913)"
readout_number = 6.21

[[record]]
compound = "CCCCn1c(=O)c2nnc(C3(C4CC4)CC3)n2c2nc(C)ccc21 [Example 13]"
tgt = "human PDE6A/6B (Homo sapiens (Human), UniProt P16499+P35913)"
readout_number = 5.52


With those in mind, consider the next compound.
// query Fill in: pIC50 of CCCCn1c(=O)c2nnc(C3(C)CC3)n2c2ncc(CC)cc21 [Example 8] is ___
// result 5.48

---

Record: IC50 reported on human PDE3A (catalytic domain) (Homo sapiens (Human), UniProt Q14432).
Sequence (Q14432 641-1141): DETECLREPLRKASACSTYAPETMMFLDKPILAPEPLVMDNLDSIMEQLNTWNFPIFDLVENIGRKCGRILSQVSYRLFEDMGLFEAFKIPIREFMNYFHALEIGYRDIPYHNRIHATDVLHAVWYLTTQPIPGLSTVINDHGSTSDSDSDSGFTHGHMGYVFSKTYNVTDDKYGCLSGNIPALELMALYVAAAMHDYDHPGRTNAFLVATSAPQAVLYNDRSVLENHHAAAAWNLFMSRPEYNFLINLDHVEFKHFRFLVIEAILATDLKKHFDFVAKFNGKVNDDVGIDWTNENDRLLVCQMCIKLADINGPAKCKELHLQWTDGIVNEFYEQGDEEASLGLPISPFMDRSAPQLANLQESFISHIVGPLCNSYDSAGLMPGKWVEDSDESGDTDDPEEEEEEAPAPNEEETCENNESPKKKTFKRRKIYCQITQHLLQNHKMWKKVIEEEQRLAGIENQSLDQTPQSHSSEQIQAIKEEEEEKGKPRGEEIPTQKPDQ

Consider the worked cases shown below.
[[record]]
compound = "CCCn1c(=O)c2nnc(C3(C4CC4)CC3)n2c2ncc(C)cc21 [Example 3]"
result = "> 100 µM"

[[record]]
compound = "CCCCn1c(=O)c2nnc(C3(C)CC3)n2c2ncc(CC)cc21 [Example 8]"
result = "> 100 µM"

[[record]]
compound = "CCC(Cn1c(=O)c2nnc(C3(C4CC4)CC3)n2c2ncccc21)OC (racemic) [Example 4]"
result = "> 100 µM"


I would be grateful if you could provide IC50 for each of the following entries.
1. CCCCn1c(=O)c2nnc(C3(C4CC4)CC3)n2c2ncc(C)cc21 [Example 1]
2. CCCCn1c(=O)c2nnc(C3(C4CC4)CC3)n2c2nc(C)ccc21 [Example 13]

// result
> 50 µM
19.2 µM

---

- tgt: human PDE1C (Homo sapiens (Human), UniProt Q14123)
For each of the compounds below, state its IC50.

Consider the worked cases shown below.
[[record]]
smiles_data = "CCCCn1c(=O)c2nnc(C3(C4CC4)CC3)n2c2nc(C)ccc21"
quantity_kind = "IC50"
result = "< 0.5 nM"

[[record]]
smiles_data = "CCCCn1c(=O)c2nnc(C3(C4CC4)CC3)n2c2ncc(CC)cc21"
quantity_kind = "IC50"
result = "< 0.5 nM"


// query Fill in: IC50 of CCCCn1c(=O)c2nnc(C3(C4CC4)CC3)n2c2nc(C)c(C)cc21 is ___
// result < 0.5 nM
